Hey, just so you know, these numbers are from patent US20160177307.

target: PDGF-BB (platelet-derived growth factor BB) (Homo sapiens); test: filter; conditions: as 5169-4_146; PS 16; 3' inverted dT
attribute-measured: Kd (nM)
The answer is to be given in nM; state only the numeric part.

Item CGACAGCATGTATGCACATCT [5169-4_180] has what recorded Kd?
0.02

* * *

Tested on: VEGF-121 (Homo sapiens), P15692-9
Sequence: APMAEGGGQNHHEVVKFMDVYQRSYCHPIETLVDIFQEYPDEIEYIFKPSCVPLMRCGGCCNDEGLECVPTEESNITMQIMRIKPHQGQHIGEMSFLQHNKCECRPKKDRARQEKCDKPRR
Assay: filter
Details: 2'-OMe G9,A17; C3 spacer at 15; all P are NapdU; target taken as VEGF-121
attribute-measured: pKd
The value called pKd is obtained by taking minus log10 of the concentration in mol/L.

Item CCGTTCAAGTGCTTTAGGATTTAAATGG [4867-31_187] has what recorded pKd?
10.49
